Exercise: for every item that follows, state its recorded APOE RNA (% UTC).
# Tested on: human APOE RNA
# method: Dose-dependent inhibition of human APOE RNA in HepG2 cells, electroporation, 50,000 cells per well, RT-PCR normalized to GAPDH (Example 4, Tables 8-10)
# Format: cell-based
# setup.conditions: 3,200 nM; HepG2, electroporation, 24-hour treatment
Strand notation (5' to 3'): a small letter for the sugar, then the base; units joined by * are phosphorothioate-linked, units joined directly phosphodiester-linked; [ ] holds rarer units or linkages, { } end groups; capitals alone tell only the bases. [ms] = mesyl phosphoramidate linkage; k = constrained ethyl (cEt); [5mC] = 5-methylcytosine; d = 2'-deoxy (DNA)
Give your result as the value with the unit written after it.

[in] Look at this substance and give its reported APOE RNA (% UTC). 1746805 (k[5mC]*kT*dT[ms]kG*dG[ms]dT[ms]dG[ms]dA[ms]dA[ms]dT*d[5mC]*dT*dT*dT*dA[ms]dT*dT[ms]kA*kA*kA; antisense) [Compound 1746805]
[out] 39 % UTC

[in] Look at this substance and give its reported APOE RNA (% UTC). 1746789 (k[5mC]*dT[ms]kT*dG[ms]kG*dT[ms]dG[ms]dA[ms]dA[ms]dT*d[5mC]*dT*dT*dT*dA[ms]dT*kT*kA*dA[ms]kA; antisense) [Compound 1746789]
[out] 19 % UTC

[in] Look at this substance and give its reported APOE RNA (% UTC). 1746813 (k[5mC]*dT[ms]dT[ms]kG*dG[ms]kT*dG[ms]dA[ms]dA[ms]dT*d[5mC]*dT*dT*dT*dA[ms]dT*dT[ms]kA*kA*kA; antisense) [Compound 1746813]
[out] 41 % UTC

[in] Look at this substance and give its reported APOE RNA (% UTC). 1746797 (k[5mC]*kT*dT[ms]dG[ms]dG[ms]kT*dG[ms]dA[ms]dA[ms]dT*d[5mC]*dT*dT*dT*dA[ms]dT*kT*dA[ms]kA*kA; antisense) [Compound 1746797]
[out] 37 % UTC

[in] Look at this substance and give its reported APOE RNA (% UTC). 1746809 (k[5mC]*dT[ms]kT*dG[ms]kG*dT[ms]dG[ms]dA[ms]dA[ms]dT*d[5mC]*dT*dT*dT*dA[ms]dT*dT[ms]kA*kA*kA; antisense) [Compound 1746809]
[out] 33 % UTC

---

# Tested on: human APOE RNA
# method: Potency (dose response, ED50) in APOE C57BL/6NTac-Apoeem7250 knock-in mice, 8 weeks (Example 15)
# Format: in vivo
# setup.conditions: spinal cord, ICV dose 30 μg
Strand notation (5' to 3'): a small letter for the sugar, then the base; units joined by * are phosphorothioate-linked, units joined directly phosphodiester-linked; [ ] holds rarer units or linkages, { } end groups; capitals alone tell only the bases. [ms] = mesyl phosphoramidate linkage; e = 2'-O-(2-methoxyethyl) (MOE); k = constrained ethyl (cEt); [5mC] = 5-methylcytosine; d = 2'-deoxy (DNA)
Exercise: for every item that follows, state its recorded APOE RNA (% control) Spinal Cord.

[in] Look at this substance and give its reported APOE RNA (% control) Spinal Cord. ^mCksTksTksGdzGdzTdzGdzAdzAdzTds^mCdsTdsTdsTdsAdsTdsTksAksAdzAk (antisense k[5mC]*kT*kT*dG[ms]dG[ms]dT[ms]dG[ms]dA[ms]dA[ms]dT*d[5mC]*dT*dT*dT*dA*dT*kT*kA*dA[ms]kA) [Compound No. 1785602]
[out] 40 % control

[in] Look at this substance and give its reported APOE RNA (% control) Spinal Cord. TezTeoGeoGksTdsGdzAdzAdzTds^mCdsTdsTdsTdsAdzTksTksAesAesAes^mCe (antisense eT[ms]eTeGkG*dT*dG[ms]dA[ms]dA[ms]dT*d[5mC]*dT*dT*dT*dA[ms]kT*kT*eA*eA*eA*e[5mC]) [Compound No. 1809814]
[out] 60 % control

[in] Look at this substance and give its reported APOE RNA (% control) Spinal Cord. 1785599: modified oligonucleotide complementary to human APOE RNA (k[5mC]*kT*kT*dG[ms]dG[ms]dT[ms]dG[ms]dA[ms]dA[ms]dT[ms]d[5mC]*dT*dT*dT*dA*dT*kT*kA*dA[ms]kA; antisense) [compound 1785599]
[out] 38 % control

[in] Look at this substance and give its reported APOE RNA (% control) Spinal Cord. Aes^mCeoTeoTesGesGksTdsGdzAdzAdzTds^mCdsTdsTdsTdsAdzTksTksAesAe (eA*e[5mC]eTeT*eG*kG*dT*dG[ms]dA[ms]dA[ms]dT*d[5mC]*dT*dT*dT*dA[ms]kT*kT*eA*eA) [Compound No. 1757576]
[out] 15 % control

[in] Look at this substance and give its reported APOE RNA (% control) Spinal Cord. Aks^mCeoTeoTesGesGksTdsGdzAdzAdzTds^mCdsTdsTdsTdsAdzTksTksAesAe (kA*e[5mC]eTeT*eG*kG*dT*dG[ms]dA[ms]dA[ms]dT*d[5mC]*dT*dT*dT*dA[ms]kT*kT*eA*eA) [Compound No. 1809635]
[out] 27 % control
